All values here come from ChEMBL document CHEMBL2407026.

- target_entity: 11-beta-hydroxysteroid dehydrogenase 1 (Homo sapiens)
- Sequence (P28845 whole entry, looked up): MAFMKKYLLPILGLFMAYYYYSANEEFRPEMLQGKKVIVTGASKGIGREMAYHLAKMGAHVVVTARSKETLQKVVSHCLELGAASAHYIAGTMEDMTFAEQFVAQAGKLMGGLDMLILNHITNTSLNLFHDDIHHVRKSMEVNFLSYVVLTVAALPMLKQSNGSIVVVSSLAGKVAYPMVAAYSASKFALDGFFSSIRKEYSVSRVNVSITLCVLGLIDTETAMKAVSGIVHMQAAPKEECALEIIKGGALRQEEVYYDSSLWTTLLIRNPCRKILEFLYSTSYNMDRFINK
- assay_summary: Inhibition of human microsomal 11beta-HSD1 overexpressed in HEK293 cells using [3H]-cortisone as substrate assessed as formation of [3H]-cortisol at 10 uM by scintillation proximity assay in presence of NADPH relative to control
Item-by-item account of inhibition

molecule: CC(C)(O)[C@@H](O)[C@H]1C[C@@H]([C@@H]2CC[C@]3(C)C4=CC[C@H]5C(C)(C)[C@@H](O)CC[C@]5(C)[C@H]4CC[C@@]23C)C(=O)O1
inhibition: > 60%

molecule: CC(C)=CC(=O)[C@@H](O)[C@H](C)[C@@H]1CC[C@]2(C)C3=CC[C@H]4C(C)(C)[C@@H](O)CC[C@]4(C)[C@H]3C[C@@H](O)[C@@]12C
inhibition: > 60%

molecule: CC(C)=CC(=O)[C@@H](O)[C@H](C)[C@@H]1CC[C@]2(C)C3=CC[C@H]4C(C)(C)[C@H](O)CC[C@]4(C)[C@H]3C[C@@H](O)[C@@]12C
inhibition: 45%

molecule: CCC(C)C(=O)O[C@@H]1C[C@H]2C(C)(C)C(=O)C=C[C@]2(C)[C@H]2[C@@H](OC(C)=O)C[C@]3(C)C(=CC(=O)[C@H]3c3ccoc3)[C@@]21C (relative stereo)
inhibition: > 50%
